SYSTEM_UNDER_TEST: SHP2-C SH2;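 note: peptide library displayed on the E. coli surface as eCPX fusions, selected cells deep-sequenced, score is each peptide's frequency after selection divided by its frequency in the input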
EXPERIMENT_SUMMARY: SH2 binding enrichment of the phosphorylated peptide, bacterial display (enrichment ratio); higher = better substrate or ligand; peptides without Tyr show the background
MEASURED_ATTRIBUTE: SH2 binding enrichment
Form: value (number only, do not type unit).

// solved cases for SH2 binding enrichment follow
>>> reported_measurement("DSDTDYGSGYP [RNASEH2A_Y206_L202S]")
0.405
>>> reported_measurement("PEPHIYAVADV [MYO9A_Y216_L211P]")
0.654
>>> reported_measurement("GGQVFYNSEYG [FLT4_Y1333]")
0.707
>>> reported_measurement("LQTYRYHGLSM [PDHA1_Y289_H292L]")
0.815
>>> reported_measurement("MASISYDFCRV [BST2_Y6_T4I_YF]")
0.666

Query: So what SH2 binding enrichment did VFLGAYDRFLP [SLC22A5_Y486_YF] get with SHP2-C SH2?
Reply: 0.852

Query: Check NDFGNYSNQSS [HNRNPA1_Y318_N319S] too.
Reply: 0.625

Query: Check MRALTYCDLHK [KCNH2_Y827_V822M] too.
Reply: 0.708

Query: Check LAIEWYVVVCK [RHO_Y136_R135W] too.
Reply: 0.583
